The measurements presented in this section are drawn from paper PMC4552634.

Tested on: P. falciparum stage V gametocytes
Set-up: BacTiter-Glo ATP luminescence viability of purified stage V gametocytes in 384-well plates, per cent inhibition versus DMSO
Details: 48 h, 5 µM; inhibitor
The campaign covered roughly 13,000 compounds. About 3,200 (25%) showed an effect of 50% or more. The list shows a part of the results.
Reported % Inhibition values follow for various compounds

Compound: CCCNC(=O)c1cncc(-c2ccc(CNC3Cc4ccccc4C3)cc2)c1 [TCMDC-134242]
% Inhibition [%]: -9.717
--
Compound: O=C(Nc1cccc(-c2ccc(-c3nc4ccc(C(F)(F)F)cc4[nH]3)cc2)c1)c1csnn1 [TCMDC-136905]
% Inhibition [%]: 5.589
--
Compound: Cc1cc(N[C@@H](CC(C)C)C(=O)NCCOc2ccccc2)nc(NCCc2ccc(F)cc2)n1 [TCMDC-134795]
% Inhibition [%]: 47.6
--
Compound: CC(=O)N(C)c1cccc(C(=O)Nc2ccc(-c3cccc(-c4nc5ccc(C(F)(F)F)cc5[nH]4)c3)cc2)c1 [TCMDC-137070]
% Inhibition [%]: -32.74
--
Compound: Cc1cc(NC(=O)Nc2ccc3sccc3c2)c2ccccc2n1 [TCMDC-138970]
% Inhibition [%]: 36.17
--
Compound: CC(=O)N(C)c1cccc(C(=O)Nc2cccc(-c3cccc(-c4nc5ccc(C(F)(F)F)cc5[nH]4)c3)c2)c1 [TCMDC-137069]
% Inhibition [%]: 42.31
--
Compound: Cc1sc(CNCCCNc2cc(=O)c3ccccc3[nH]2)c(I)c1C [TCMDC-140907]
% Inhibition [%]: -22.52
--
Compound: c1cncc(CCNCc2ccc(-c3ccc(CNC4Cc5ccccc5C4)cc3)cc2)c1 [TCMDC-141458]
% Inhibition [%]: 22.23
--
Compound: CC(=O)Nc1ccc(C(=O)Nc2cccc(-c3ccc(-c4nc5ccc(F)cc5[nH]4)cc3)c2)cn1 [TCMDC-136826]
% Inhibition [%]: -35.51
--
Compound: NC(=O)c1ccc(C(=O)Nc2cccc(-c3ccc(-c4nc5ccc(C(F)(F)F)cc5[nH]4)cc3)c2)cc1 [TCMDC-132193]
% Inhibition [%]: -16.46
--
Compound: c1ccc(COc2ccc(Nc3ncnc4cnc(-c5ccc(CNc6cccnc6)o5)cc34)cc2)cc1 [TCMDC-137776]
% Inhibition [%]: 19.44
--
Compound: O=C(NCCNc1ccnc(NCc2ccc(F)cc2)n1)c1cc2ccccc2s1 [TCMDC-133646]
% Inhibition [%]: -28.02
